B1: SNX8 (parent)
chain: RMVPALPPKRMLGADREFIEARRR

variants of: B1; test: protein stability index of a GFP-peptide fusion (GPS, HEK-293T) (PSI 1-6); higher = more stable; settings: c terminus: a fixed tail appended;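 also: lentivirally expressed fusions sorted by FACS into six bins by GFP to DsRed ratio, PSI derived from sequencing read proportions per bin multiplied by bin number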
protein stability index values, listed per item
Readout Name: protein stability index

Residues	Reading
RMVPALPPKRMLGADREFIEARRH [R24H]	3.83
RIVPALPPKRMLGADREFIEARRR [M2I]	3.01
RMVAALPPKRMLGADREFIEARRR [P4A]	3.32
RMVPALPPKRMEGADREFIEARRR [L12E]	5.11
RMVPALPPWRMLGADREFIEARRR [K9W]	4.02
RMCPALPPKRMLGADREFIEARRR [V3C]	3.5
RMVPALPPKRMLGADREFPEARRR [I19P]	4.65
RMVPALPPKCMLGADREFIEARRR [R10C]	3.61
RMVPALPPCRMLGADREFIEARRR [K9C]	2.95
RMVPALPPKRMLGADLEFIEARRR [R16L]	2.65
RMVPALPPKRMQGADREFIEARRR [L12Q]	4.61
RMVPALPPKRMLGADREFIEACRR [R22C]	4
RMVPALPPKRMLGADWEFIEARRR [R16W]	2.42
RMVPANPPKRMLGADREFIEARRR [L6N]	3.96
RMVPALPPKRMLGPDREFIEARRR [A14P]	4
IMVPALPPKRMLGADREFIEARRR [R1I]	3.21
RMVPALPPKRMLGADREFIGARRR [E20G]	4.02
RMVPALPPKRMLGDDREFIEARRR [A14D]	4.19
